Target: GTPase HRas (Homo sapiens) (UniProt P01112)
Sequence (P01112 whole entry, looked up): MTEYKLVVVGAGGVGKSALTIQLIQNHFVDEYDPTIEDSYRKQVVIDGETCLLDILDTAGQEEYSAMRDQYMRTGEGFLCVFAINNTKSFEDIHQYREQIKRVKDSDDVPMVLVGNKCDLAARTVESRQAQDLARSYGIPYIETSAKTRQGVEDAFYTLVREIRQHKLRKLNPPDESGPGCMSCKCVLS
Test: Ras wt fluorescent GTP loading blockade – biochemical, wildtype, multiplex bead flow cytometry, dose response (AID 1335)
Conditions: bead-based flow cytometry, Bodipy-GTP binding to GST-Ras; at 100 µM (top of the series) unless noted
ENDPOINT LABEL: GTP binding, percent of control (%)
The response must be a number in % with no trailing unit.

Please review the entries below; each comes with its answer.
[
  {
    "QUERY SMILES": "CCCN1C(=O)/C(=C\\C=C2/Sc3ccccc3N2CC)SC1=S",
    "VALUE UNITS": "%",
    "GTP binding, percent of control": 57.8
  },
  {
    "QUERY SMILES": "CCCCCOC(=O)c1ccccc1C(=O)O",
    "VALUE UNITS": "%",
    "GTP binding, percent of control": 220
  },
  {
    "QUERY SMILES": "CCOC(=O)CCCCC(=O)c1[nH]c(=O)[nH]c1CSc1nnc2c3cc(Br)ccc3n(C)c2n1",
    "VALUE UNITS": "%",
    "GTP binding, percent of control": 80.3
  },
  {
    "QUERY SMILES": "CCOc1ccccc1CNCc1sc(C(=O)O)cc1C",
    "VALUE UNITS": "%",
    "GTP binding, percent of control": 79.1
  },
  {
    "QUERY SMILES": "N#Cc1c2nc3ccccc3nc2n2cc(NC(=O)c3ccc(F)cc3)ccc12",
    "VALUE UNITS": "%",
    "GTP binding, percent of control": 64.8
  }
]

I'm curious: which GTP binding, percent of control was measured for `COc1cccc(N2CCN(C(=O)CCCCCNc3nc(=S)[nH]c4ccccc34)CC2)c1` tested on GTPase HRas (Homo sapiens) (UniProt P01112)?
79.5

Data origin, for the record: PubChem BioAssay
